- method-notes: clinical
- measurement-context: human, in vivo, 150 mg, AUC0–168
assay-endpoint: AUC(0-t) (µg·h/mL)

CS(=O)(=O)c1ccc(C(=O)Nc2ccc(Cl)c(-c3ccccn3)c2)c(Cl)c1 = 417

Just for reference, paper PMC3674138 is where these values come from.
